system: HCT-116; test: Antiproliferative activity against human HCT116 cells measured after 72 hrs by CCK-8 cells; format: functional, cell-based; details: HCT-116, 72 h
pIC50: −log10 of the molar value.
pIC50 values by entry

{"compound structure": "CN1c2ccc(F)cc2C(=O)N2CCc3c([nH]c4ccc(OC(=O)CCC(=O)NCCCO[C@@H]5O[C@H](CO)[C@@H](O)[C@H](O)[C@H]5O)cc34)[C@H]21", "target": "HCT-116", "pIC50": 7.31}
{"compound structure": "CN1c2ccc(F)cc2C(=O)N2CCc3c([nH]c4ccc(O[C@@H]5O[C@H](CO)[C@@H](O)[C@H](O)[C@H]5O)cc34)[C@H]21", "target": "HCT-116", "pIC50": 7.19}
{"compound structure": "CN1c2ccc(F)cc2C(=O)N2CCc3c([nH]c4ccc(OC(=O)CCCC(=O)NCCCO[C@@H]5O[C@H](CO)[C@@H](O)[C@H](O)[C@H]5O)cc34)[C@H]21", "target": "HCT-116", "pIC50": 7.27}
